# Test system: Botrytis cinerea
# ASSAY: Antifungal actiivty against Botryotinia fuckeliana ACCC 30387 assessed as inhibition of radial growth after 3 days
# Assay type: functional
# CONDITIONS_USED: ACCC 30387, 72 h
MEASUREMENT_TYPE: log10 of MIC (log10 of the value in µg/mL)
Hi team, quick reminder: these entries are log10 of MIC (µg/mL).

Input CCCCCC1=C(C)C(=O)OC1=O , output reported log10 of MIC.
0.70

Input Nc1c(Cl)cc([N+](=O)[O-])cc1Cl , output reported log10 of MIC.
-1.00

Input CC1=C(CBr)C(=O)OC1=O , output reported log10 of MIC.
1.00

Input CC1=C(C)C(=O)N(c2cc(Cl)cc(Cl)c2)C1=O , output reported log10 of MIC.
-1.00

Input CCCCN1C(=O)C(C)=C(C)C1=O , output reported log10 of MIC.
0.70

Input O=C1OC(=O)c2c(F)ccc(F)c21 , output reported log10 of MIC.
2.18

Input CC1=C(C)C(=O)N(c2ccc(Cl)cc2)C1=O , output reported log10 of MIC.
1.00

Input CC1=C(C)C(=O)N(c2nc3ccccc3[nH]2)C1=O , output reported log10 of MIC.
1.00

Input CC1=C(C)C(=O)N(c2ccccc2)C1=O , output reported log10 of MIC.
0.00

Input CC1=C(CCC(=O)O)C(=O)OC1=O , output reported log10 of MIC.
1.90

Input CC1=C(C)C(=O)N(c2ccc(F)c(F)c2F)C1=O , output reported log10 of MIC.
0.00

====

# Tested on: Botrytis cinerea
# ASSAY: Antifungal actiivty against Botryotinia fuckeliana ACCC 30387 assessed as inhibition of radial growth after 3 days
# Type: functional
# CONDITIONS_USED: ACCC 30387, 72 h
MIC under 50 µg/mL gets Met, anything at or over 50 µg/mL gets Not met.

Just wondering, is MIC of O=C1OC(=O)C(CBr)=C1CBr below 50 µg/mL?
Not met

Just wondering, is MIC of CCOC(=O)C(CC1=C(C)C(=O)OC1=O)C(=O)OCC below 50 µg/mL?
Met

Just wondering, is MIC of CC(=O)OCC1=C(C)C(=O)OC1=O below 50 µg/mL?
Met

Just wondering, is MIC of CC1=C(C)C(=O)OC1=O below 50 µg/mL?
Met

Just wondering, is MIC of CCCCCCN1C(=O)C(C)=C(C)C1=O below 50 µg/mL?
Met

Just wondering, is MIC of O=C1OC(=O)C(Cl)=C1Cl below 50 µg/mL?
Not met

Just wondering, is MIC of O=C1C=C(c2ccccc2)C(=O)O1 below 50 µg/mL?
Not met

Just wondering, is MIC of CC1=C(C)C(=O)N(CCc2ccccc2)C1=O below 50 µg/mL?
Not met

Just wondering, is MIC of CCCCCCC1=C(C)C(=O)OC1=O below 50 µg/mL?
Met

Just wondering, is MIC of O=C1OC(=O)C(c2ccccc2)=C1c1ccccc1 below 50 µg/mL?
Met

Just wondering, is MIC of O=C1OC(=O)c2c(F)c(F)c(F)c(F)c21 below 50 µg/mL?
Not met

Just wondering, is MIC of CC1=C(C)C(=O)N(c2cccc([N+](=O)[O-])c2C)C1=O below 50 µg/mL?
Met

Just wondering, is MIC of CCCCCN1C(=O)C(C)=C(C)C1=O below 50 µg/mL?
Met

Just wondering, is MIC of Cc1ccc2c(c1)C(=O)OC2=O below 50 µg/mL?
Not met

Just wondering, is MIC of O=C1OC(=O)c2c(F)cccc21 below 50 µg/mL?
Not met

Just wondering, is MIC of CC1=C(C)C(=O)N(CCCc2ccccc2)C1=O below 50 µg/mL?
Met

Just wondering, is MIC of CC1=C(C)C(=O)N(Cc2ccccc2)C1=O below 50 µg/mL?
Met

Just wondering, is MIC of O=C(O)c1ccc2c(c1)C(=O)OC2=O below 50 µg/mL?
Not met

Just wondering, is MIC of CCCCCCCCCCC1=C(C)C(=O)OC1=O below 50 µg/mL?
Met

Just wondering, is MIC of CCCC1=C(C)C(=O)OC1=O below 50 µg/mL?
Met

Just wondering, is MIC of O=C1C=C(Br)C(=O)O1 below 50 µg/mL?
Not met

Just wondering, is MIC of CC1=C(C)C(=O)N(c2ccc(C)cc2)C1=O below 50 µg/mL?
Met

Just wondering, is MIC of O=C1C=CC(=O)O1 [MALEIC ANHYDRIDE] below 50 µg/mL?
Not met

Just wondering, is MIC of O=C1OC(=O)c2cc(Cl)c(Cl)cc21 below 50 µg/mL?
Not met

Just wondering, is MIC of O=C1OC(=O)c2c(Cl)ccc(Cl)c21 below 50 µg/mL?
Not met

Just wondering, is MIC of CC1=C(COC(=O)c2ccccc2)C(=O)OC1=O below 50 µg/mL?
Met

Just wondering, is MIC of CC1=C(C)C(=O)N(C2CCCCC2)C1=O below 50 µg/mL?
Met
